Parameter: inhibition. Scope: all listed entries.
TEST TARGET: Lon protease (Escherichia coli (strain K12))
TEST METHOD NOTES: inhibitors of E. coli Lon protease, primary screen, biochemical, fluorescence polarization (AID 602123);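 further: 0% = enzyme with probe and DMSO and 100% = no enzyme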
STUDY CONDITIONS: purified E. coli Lon protease, at 7.94 µM, active compounds read high
Screen size: about 360,000 compounds; about 1,500 (0.42%) were called active. What follows is part of a selection rich in actives, with near analogues and random picks from the rest.
REPORTED METRIC: inhibition (%)

[
  {
    "COMPOUND": "CC(C)NC(=O)Nc1cccc2c1O[C@@H](CN(C)S(=O)(=O)c1ccc(F)cc1)[C@@H](C)CN([C@H](C)CO)C2=O",
    "TEST TARGET": "Lon protease (Escherichia coli (strain K12))",
    "UNITS TEXT": "%",
    "VAL": -17.1
  },
  {
    "COMPOUND": "CCS(=O)(=O)n1nc(-c2ccccc2)nc1SCc1ccccc1",
    "TEST TARGET": "Lon protease (Escherichia coli (strain K12))",
    "UNITS TEXT": "%",
    "VAL": 0.39
  },
  {
    "COMPOUND": "CN1CCN(S(=O)(=O)c2ccc(N3CCN(S(=O)(=O)c4cccs4)CC3)nc2)CC1",
    "TEST TARGET": "Lon protease (Escherichia coli (strain K12))",
    "UNITS TEXT": "%",
    "VAL": -1.23
  },
  {
    "COMPOUND": "CCn1nnnc1SCC(=O)c1ccc(C)cc1C",
    "TEST TARGET": "Lon protease (Escherichia coli (strain K12))",
    "UNITS TEXT": "%",
    "VAL": -3.48
  },
  {
    "COMPOUND": "Cc1ccc(CNC(=O)CCN2C(=O)[C@@H]3Cc4ccccc4CN3C2=O)cc1",
    "TEST TARGET": "Lon protease (Escherichia coli (strain K12))",
    "UNITS TEXT": "%",
    "VAL": 1.97
  },
  {
    "COMPOUND": "CC#CC[N+](C)(C)CCCCCC",
    "TEST TARGET": "Lon protease (Escherichia coli (strain K12))",
    "UNITS TEXT": "%",
    "VAL": 11.3
  },
  {
    "COMPOUND": "Cc1ccn2cc(-c3nonc3C)cc2c1",
    "TEST TARGET": "Lon protease (Escherichia coli (strain K12))",
    "UNITS TEXT": "%",
    "VAL": 25.1
  },
  {
    "COMPOUND": "Cc1cccc(N(Cc2ccccc2)C(=O)c2ccccc2F)c1",
    "TEST TARGET": "Lon protease (Escherichia coli (strain K12))",
    "UNITS TEXT": "%",
    "VAL": 0.91
  },
  {
    "COMPOUND": "COc1ccc2oc(C(=O)NCC(Cc3ccccc3)N(C)C)c(C)c2c1 (stereo not drawn)",
    "TEST TARGET": "Lon protease (Escherichia coli (strain K12))",
    "UNITS TEXT": "%",
    "VAL": 1.71
  },
  {
    "COMPOUND": "CCOC(=O)N1CCC(NC(=O)CCc2cn(C)c3ccccc23)CC1",
    "TEST TARGET": "Lon protease (Escherichia coli (strain K12))",
    "UNITS TEXT": "%",
    "VAL": -2.75
  },
  {
    "COMPOUND": "Cc1ccc(Cc2c(-c3ccco3)nc3ccc(Cl)cn23)cc1",
    "TEST TARGET": "Lon protease (Escherichia coli (strain K12))",
    "UNITS TEXT": "%",
    "VAL": -7.56
  },
  {
    "COMPOUND": "O=S(=O)(/N=C(/Nc1ccccc1)c1ccccc1)c1cccs1",
    "TEST TARGET": "Lon protease (Escherichia coli (strain K12))",
    "UNITS TEXT": "%",
    "VAL": 5.92
  },
  {
    "COMPOUND": "CCn1c(CNC(=O)c2cc(OC)c(OC)c(OC)c2)cc2cc(C)ccc21",
    "TEST TARGET": "Lon protease (Escherichia coli (strain K12))",
    "UNITS TEXT": "%",
    "VAL": -10.1
  },
  {
    "COMPOUND": "Cc1cc(Br)ccc1NC(=O)CN(C)C(=O)CN1C(=O)NC2(CCCC2)C1=O",
    "TEST TARGET": "Lon protease (Escherichia coli (strain K12))",
    "UNITS TEXT": "%",
    "VAL": -8.08
  },
  {
    "COMPOUND": "O=S(=O)(N1CCOCC1)N1CCN(c2ccccc2F)CC1",
    "TEST TARGET": "Lon protease (Escherichia coli (strain K12))",
    "UNITS TEXT": "%",
    "VAL": 3.92
  },
  {
    "COMPOUND": "CCCCCc1ccc(-c2ccc(C(=O)O)cc2)nc1",
    "TEST TARGET": "Lon protease (Escherichia coli (strain K12))",
    "UNITS TEXT": "%",
    "VAL": -2.2
  },
  {
    "COMPOUND": "COc1ccc(NCc2nnc(SCc3ccccc3)n2-c2ccc(OC)cc2)cc1",
    "TEST TARGET": "Lon protease (Escherichia coli (strain K12))",
    "UNITS TEXT": "%",
    "VAL": -3.02
  },
  {
    "COMPOUND": "CCOCCCNC(=O)C(NC(=O)c1ccccc1O)c1ccccc1 (stereo not drawn)",
    "TEST TARGET": "Lon protease (Escherichia coli (strain K12))",
    "UNITS TEXT": "%",
    "VAL": 10.1
  },
  {
    "COMPOUND": "CCOC(=O)C1CCN(Cc2c(C(=O)N3CCOCC3)nc3c(C)cccn23)CC1",
    "TEST TARGET": "Lon protease (Escherichia coli (strain K12))",
    "UNITS TEXT": "%",
    "VAL": -0.49
  },
  {
    "COMPOUND": "Cc1nn(C)c(C)c1CN(C(=O)CCc1nnc(Cc2c[nH]c3ccccc23)o1)C(C)C",
    "TEST TARGET": "Lon protease (Escherichia coli (strain K12))",
    "UNITS TEXT": "%",
    "VAL": 12.7
  },
  {
    "COMPOUND": "CSc1ccc(S(=O)(=O)N2CCC(C(=O)NCCc3ccccc3)CC2)cc1",
    "TEST TARGET": "Lon protease (Escherichia coli (strain K12))",
    "UNITS TEXT": "%",
    "VAL": 11
  },
  {
    "COMPOUND": "O=C(COC(=O)c1cccc(Br)c1)Nc1cccc2c1C(=O)c1ccccc1C2=O",
    "TEST TARGET": "Lon protease (Escherichia coli (strain K12))",
    "UNITS TEXT": "%",
    "VAL": -3.73
  },
  {
    "COMPOUND": "CCCCn1c(=S)[nH]c2cc(S(=O)(=O)N3CCCCC3)ccc21",
    "TEST TARGET": "Lon protease (Escherichia coli (strain K12))",
    "UNITS TEXT": "%",
    "VAL": -10.8
  },
  {
    "COMPOUND": "CC(C)Cc1ccc(-c2cc3nc(NCc4cccc(Cl)c4)ccn3n2)cc1",
    "TEST TARGET": "Lon protease (Escherichia coli (strain K12))",
    "UNITS TEXT": "%",
    "VAL": -0.63
  },
  {
    "COMPOUND": "O=C(COC(=O)c1ccc2c(c1)OCCO2)NCc1ccccc1Cl",
    "TEST TARGET": "Lon protease (Escherichia coli (strain K12))",
    "UNITS TEXT": "%",
    "VAL": 6.26
  },
  {
    "COMPOUND": "COc1ccc(SCCN2CCN(CC(C)C)CCC2=O)cc1",
    "TEST TARGET": "Lon protease (Escherichia coli (strain K12))",
    "UNITS TEXT": "%",
    "VAL": 8.99
  },
  {
    "COMPOUND": "Cc1ccccc1S(=O)(=O)NC(=O)C1(C)CCN1C(=O)C1(c2ccccc2)CCCC1 (stereo not drawn)",
    "TEST TARGET": "Lon protease (Escherichia coli (strain K12))",
    "UNITS TEXT": "%",
    "VAL": -3.92
  },
  {
    "COMPOUND": "CC(C)(O)C1=C[N+](=O)CC=C1",
    "TEST TARGET": "Lon protease (Escherichia coli (strain K12))",
    "UNITS TEXT": "%",
    "VAL": -1.32
  }
]
